Data credit: patent US20110105457A1

target: PI-3 kinase γ (Homo sapiens); assay: PI3Kγ inhibitory activity, PI3-kinase HTRF assay (Millipore); type: biochemical; details: 0.5 h; compound 50 μM; read-out: Inhibition ratio % (50 μM)
Record form. Attribute: inhibition at 50 µM. Fill in for each entry.

Please give inhibition at 50 µM for each item listed below.
1. COc1cccc(-c2ccc3nc(Nc4cccc(O)n4)cn3n2)c1
2. CNC(=O)Nc1cn2nc(Cc3cccc(OC)c3)ccc2n1
3. CNC(=O)Nc1cn2nc(-c3cccc(N(C)C)c3)ccc2n1
4. CNC(=O)Nc1cn2nc(-c3cccc(C(=O)N4CCCC4)c3)ccc2n1
5. CNC(=O)Nc1cn2nc(C(=O)Nc3ccc(Cl)cc3)ccc2n1
6. CNC(=O)Nc1cn2nc(-c3ccc(S(C)(=O)=O)cc3)ccc2n1

Output:
["92%", "78%", "102%", "81%", "76%", "66%"]

// batch mode: one inhibition at 50 µM value per listed entry
1. CNC(=O)Nc1cn2nc(-c3cn[nH]c3)ccc2n1
2. CNC(=O)Nc1cn2nc(C(=O)Nc3ccccc3OCCN)ccc2n1
3. COc1cccc(-c2ccc3nc(NC(=O)Nc4ccc5[nH]ccc5c4)cn3n2)c1

Output:
["87%", "72%", "67%"]

----------
target: PI-3 kinase γ (Homo sapiens, UniProt P48736); assay: PI3Kγ inhibitory activity, PI3-kinase HTRF assay (Millipore); type: biochemical; details: 0.5 h; compound 50 μM; read-out: Inhibition ratio % (50 μM)
Sequence (P48736 whole entry): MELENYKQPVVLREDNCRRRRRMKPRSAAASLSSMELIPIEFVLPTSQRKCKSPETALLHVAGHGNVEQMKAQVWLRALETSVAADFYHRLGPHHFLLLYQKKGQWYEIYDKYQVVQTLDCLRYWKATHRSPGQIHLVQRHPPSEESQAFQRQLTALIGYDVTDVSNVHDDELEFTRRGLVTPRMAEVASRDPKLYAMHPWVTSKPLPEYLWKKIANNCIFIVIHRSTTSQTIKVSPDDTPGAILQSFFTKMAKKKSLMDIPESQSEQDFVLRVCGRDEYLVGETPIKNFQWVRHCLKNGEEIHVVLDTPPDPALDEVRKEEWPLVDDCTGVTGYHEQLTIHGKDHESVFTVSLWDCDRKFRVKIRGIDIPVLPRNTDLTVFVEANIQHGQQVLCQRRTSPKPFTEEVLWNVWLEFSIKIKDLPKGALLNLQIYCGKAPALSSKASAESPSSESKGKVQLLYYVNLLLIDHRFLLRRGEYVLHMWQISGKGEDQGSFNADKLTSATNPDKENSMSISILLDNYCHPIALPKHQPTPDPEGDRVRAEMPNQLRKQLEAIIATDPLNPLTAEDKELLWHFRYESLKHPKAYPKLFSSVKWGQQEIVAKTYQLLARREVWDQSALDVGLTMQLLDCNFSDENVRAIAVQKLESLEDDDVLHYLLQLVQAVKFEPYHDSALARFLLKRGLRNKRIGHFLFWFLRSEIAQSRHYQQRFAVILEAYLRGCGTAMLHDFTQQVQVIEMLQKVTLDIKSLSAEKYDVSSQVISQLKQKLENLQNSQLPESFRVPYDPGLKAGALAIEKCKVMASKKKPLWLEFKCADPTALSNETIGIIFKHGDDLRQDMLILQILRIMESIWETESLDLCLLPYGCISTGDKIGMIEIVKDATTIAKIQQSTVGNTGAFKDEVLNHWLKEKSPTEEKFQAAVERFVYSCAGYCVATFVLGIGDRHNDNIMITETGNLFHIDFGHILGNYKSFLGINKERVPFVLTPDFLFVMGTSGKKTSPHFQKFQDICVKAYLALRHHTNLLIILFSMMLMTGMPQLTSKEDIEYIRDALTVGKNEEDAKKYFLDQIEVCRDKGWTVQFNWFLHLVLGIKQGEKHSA
Entries are sorted into classes by inhibition at 50 µM as follows: LOW (below 70%), MEDIUM (70% to below 80%), HIGH (80% or more)

compound_smiles=CNC(=O)Nc1cn2nc(NC(=O)c3ccc(C(=O)O)cc3)ccc2n1 label=MEDIUM

Please find the next compound below.
Task: Hello team, could you let me know which band the following compound falls into: COc1cccc(-c2ccc3nc(NC(=O)c4cccc(-n5cncn5)c4)cn3n2)c1
Output: HIGH

----------
What inhibition at 50 µM was measured for each of the following?
Biological target: PI-3 kinase γ (Homo sapiens, UniProt P48736)
Test: PI3Kγ inhibitory activity, PI3-kinase HTRF assay (Millipore)
Assay type: biochemical
Conditions: 0.5 h; compound 50 μM; read-out: Inhibition ratio % (50 μM)
Procedure: (Method) The PI3Kγ inhibitory activity of a compound was evaluated using PI3-kinase HTRF™ assay (Millipore) according to the following procedure. […] 5 μL of a detection reagent comprising a europium-labeled anti-GST antibody, the GST-tagged PH domain, and allophycocyanin-labeled streptavidin was added thereto. After 18 hours, HTRF (excitation wavelength: 330 nm, measuring wavelengths: 620 nm and 665 nm) was measured. […]
Numbers only, in %.

compound="CNC(=O)Nc1cn2nc(Sc3cccc(OC)c3)ccc2n1 [Compound I-281]" reported_property="inhibition at 50 µM" endpoint_value=78

State recorded inhibition at 50 µM for all listed compounds.
1. CNC(=O)Nc1cn2nc(Nc3cccc(O)c3)ccc2n1 [Compound I-85]
2. COc1cccc(-c2ccc3nc(NC(=O)CCC(=O)N(C)C)cn3n2)c1 [Compound I-172]
3. COc1cccc(-c2ccc3nc(NC(=O)NCc4nccs4)cn3n2)c1 [Compound I-255]

Output:
[111, 81, 75]

----------
Hi there, I'd appreciate the recorded inhibition at 50 µM for every entry that follows.
biological target: PI-3 kinase γ (Homo sapiens, UniProt P48736); test: PI3Kγ inhibitory activity, PI3-kinase HTRF assay (Millipore); assay type: biochemical; details: 0.5 h; compound 50 μM; read-out: Inhibition ratio % (50 μM)
One number for each entry, in %.

Would you mind listing inhibition at 50 µM for each of the following compounds?
1. CNC(=O)Nc1cn2nc(-c3cccnc3)ccc2n1 [Compound I-37]
2. CNC(=O)Nc1cn2nc(-c3cccc(NS(C)(=O)=O)c3)ccc2n1 [Compound I-74]

Output:
1. 86
2. 89

// for each compound below, give its inhibition at 50 µM
1. COc1cccc(-c2ccc3nc(Nc4cccc(C(C)=O)c4)cn3n2)c1 [Compound I-283]
2. CCCNC(=O)Nc1cn2nc(-c3cccc(OC)c3)ccc2n1 [Compound I-110]
3. COC(=O)[C@H]1CC[C@@H](C(=O)Nc2cn3nc(-c4cccc(OC)c4)ccc3n2)C1 [Compound I-195]

Output:
86
81
82

Look up inhibition at 50 µM for the entries below, preserving their order.
1. COc1cccc(-c2ccc3nc(NC(=O)NCc4ccccn4)cn3n2)c1 [Compound I-236]
2. CNC(=O)Nc1cn2nc(-c3cccc(C(C)C)c3)ccc2n1 [Compound I-127]

Output:
1. 67
2. 79

Your task in this section: give inhibition at 50 µM for each listed record.
1. CNC(=O)Nc1cn2nc(COc3ccccc3)ccc2n1 [Compound I-157]
2. COc1cccc(-c2ccc3nc(NC(=O)N4CCC[C@H]4C(=O)OC(C)(C)C)cn3n2)c1 [Compound I-249]

Output:
1. 58
2. 59

----------
Would you mind telling me the reported Amount of the test compound remained after the reaction of each entry?
Assay: Metabolic stability test, pooled human liver microsome
Type: in vitro ADME
Conditions: human liver microsome 0.5 mg protein/mL, NADPH, 37 degrees Celsius, 30 minutes
Description: After a subject compound was reacted for a certain time using a pooled human liver microsome commercially available, a reacted sample and an unreacted sample are compared to calculate a survival ratio, and then the degree of metabolism in the liver was evaluated. […]
The reply should consist of the numeric value with the unit placed after it.

Solved cases (5 shown):
compound_smiles=COc1cccc(-c2ccc3nc(NC(=O)Nc4ccccc4)cn3n2)c1 endpoint_value=95.9%
compound_smiles=COc1cccc(-c2ccc3nc(NC(=O)c4ccccc4Cl)cn3n2)c1 endpoint_value=98.1%
compound_smiles=COc1cccc(-c2ccc3nc(NC(=O)CCCn4cncn4)cn3n2)c1 endpoint_value=97%
compound_smiles=CNC(=O)Nc1cn2nc(-c3cccnc3)ccc2n1 endpoint_value=96.8%
compound_smiles=CNC(=O)Nc1cn2nc(-c3cccc(C(=O)O)c3)ccc2n1 endpoint_value=98.6%

Now consider the entry below.
Task: Give Amount of the test compound remained after the reaction for the following molecule: CNC(=O)Nc1cn2nc(-c3cccc(C(N)=O)c3)ccc2n1
Output: 98.8%

----------
Would you kindly list inhibition at 50 µM for each of these compounds?
biological target: UniProt P48736; test: PI3Kγ inhibitory activity, PI3-kinase HTRF assay (Millipore); format: biochemical; conditions: 0.5 h; compound 50 μM; read-out: Inhibition ratio % (50 μM)

Here is how some compounds turned out for inhibition at 50 µM.
compound="CNC(=O)Nc1cn2nc(-c3ccsc3)ccc2n1 [Compound I-38]" endpoint_value=91%
compound="CNC(=O)Nc1cn2nc(-c3cccc(C(=O)O)c3)ccc2n1 [Compound I-28]" endpoint_value=89%

For each of the compounds below, note its inhibition at 50 µM.
1. COc1cccc(-c2ccc3nc(NC(=O)NN(C)C)cn3n2)c1 [Compound I-276]
2. CNC(=O)Nc1cn2nc(Nc3cccc(CO)c3)ccc2n1 [Compound I-222]

Output:
1: 87%; 2: 87%

Task: Supply reported inhibition at 50 µM belonging to this compound: CNC(=O)Nc1cn2nc(-c3ccc(NS(C)(=O)=O)cc3)ccc2n1 [Compound I-73]
Output: 70%

----------
target: UniProt P48736; experiment: PI3Kγ inhibitory activity, PI3-kinase HTRF assay (Millipore); format: biochemical; details: 0.5 h; compound 50 μM; read-out: Inhibition ratio % (50 μM)
Category | rule: reported inhibition at 50 µM within range, see lo (below 60%), mid (60% to below 80%), hi (80% or more)

compound="CNC(=O)Nc1cn2nc(-c3ccc(NC(=O)OC)cc3)ccc2n1 [Compound I-80]" label=lo

Task: Band assignment needed for CNC(=O)Nc1cn2nc(C(=O)c3ccccc3)ccc2n1 [Compound I-280] please.
Output: hi

Task: Please indicate the class for CNC(=O)Nc1cn2nc(-c3cccc(OCc4ccccc4)c3)ccc2n1 [Compound I-150] based on its inhibition at 50 µM.
Output: mid

Task: Would you mind sorting CNC(=O)Nc1cn2nc(COc3cccc(OC)c3)ccc2n1 [Compound I-22] into the appropriate category?
Output: lo

----------
molecular target: CYP2D6 (Homo sapiens, UniProt P10635)
Sequence (P10635 whole entry): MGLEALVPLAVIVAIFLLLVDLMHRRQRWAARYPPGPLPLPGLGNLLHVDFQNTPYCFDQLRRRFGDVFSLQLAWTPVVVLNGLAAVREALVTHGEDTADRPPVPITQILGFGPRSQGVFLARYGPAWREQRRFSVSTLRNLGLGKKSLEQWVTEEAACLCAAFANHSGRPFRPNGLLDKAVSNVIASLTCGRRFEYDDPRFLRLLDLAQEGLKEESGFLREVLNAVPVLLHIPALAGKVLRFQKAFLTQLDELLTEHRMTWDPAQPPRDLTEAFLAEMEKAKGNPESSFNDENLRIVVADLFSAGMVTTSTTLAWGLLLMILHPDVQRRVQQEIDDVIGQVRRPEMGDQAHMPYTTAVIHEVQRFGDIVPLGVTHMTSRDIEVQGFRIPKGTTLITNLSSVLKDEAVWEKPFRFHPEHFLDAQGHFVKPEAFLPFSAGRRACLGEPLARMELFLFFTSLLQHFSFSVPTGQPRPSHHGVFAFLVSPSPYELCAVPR
pIC50: −log10 of the molar value.
Reported property: pIC50

compound_smiles=COc1cccc(-c2ccc3nc(NC(=O)NCc4nn[nH]n4)cn3n2)c1 endpoint_value="< 4.70"

--- query ---
Task: Give reported pIC50 value for COc1cncc(-c2ccc3nc(NC(=O)NCC(=O)O)cn3n2)c1
Output: < 4.70

----------
target: human ether-a-go-go related gene (hERG) channel (Homo sapiens, UniProt Q12809); construct: expressed in transfected cells; host or cells: HEK293; assay: hERG test, whole-cell patch-clamp in HEK293 cells; format: cell-based; details: HEK293 cells expressing hERG; concentration not given
Sequence (Q12809 whole entry): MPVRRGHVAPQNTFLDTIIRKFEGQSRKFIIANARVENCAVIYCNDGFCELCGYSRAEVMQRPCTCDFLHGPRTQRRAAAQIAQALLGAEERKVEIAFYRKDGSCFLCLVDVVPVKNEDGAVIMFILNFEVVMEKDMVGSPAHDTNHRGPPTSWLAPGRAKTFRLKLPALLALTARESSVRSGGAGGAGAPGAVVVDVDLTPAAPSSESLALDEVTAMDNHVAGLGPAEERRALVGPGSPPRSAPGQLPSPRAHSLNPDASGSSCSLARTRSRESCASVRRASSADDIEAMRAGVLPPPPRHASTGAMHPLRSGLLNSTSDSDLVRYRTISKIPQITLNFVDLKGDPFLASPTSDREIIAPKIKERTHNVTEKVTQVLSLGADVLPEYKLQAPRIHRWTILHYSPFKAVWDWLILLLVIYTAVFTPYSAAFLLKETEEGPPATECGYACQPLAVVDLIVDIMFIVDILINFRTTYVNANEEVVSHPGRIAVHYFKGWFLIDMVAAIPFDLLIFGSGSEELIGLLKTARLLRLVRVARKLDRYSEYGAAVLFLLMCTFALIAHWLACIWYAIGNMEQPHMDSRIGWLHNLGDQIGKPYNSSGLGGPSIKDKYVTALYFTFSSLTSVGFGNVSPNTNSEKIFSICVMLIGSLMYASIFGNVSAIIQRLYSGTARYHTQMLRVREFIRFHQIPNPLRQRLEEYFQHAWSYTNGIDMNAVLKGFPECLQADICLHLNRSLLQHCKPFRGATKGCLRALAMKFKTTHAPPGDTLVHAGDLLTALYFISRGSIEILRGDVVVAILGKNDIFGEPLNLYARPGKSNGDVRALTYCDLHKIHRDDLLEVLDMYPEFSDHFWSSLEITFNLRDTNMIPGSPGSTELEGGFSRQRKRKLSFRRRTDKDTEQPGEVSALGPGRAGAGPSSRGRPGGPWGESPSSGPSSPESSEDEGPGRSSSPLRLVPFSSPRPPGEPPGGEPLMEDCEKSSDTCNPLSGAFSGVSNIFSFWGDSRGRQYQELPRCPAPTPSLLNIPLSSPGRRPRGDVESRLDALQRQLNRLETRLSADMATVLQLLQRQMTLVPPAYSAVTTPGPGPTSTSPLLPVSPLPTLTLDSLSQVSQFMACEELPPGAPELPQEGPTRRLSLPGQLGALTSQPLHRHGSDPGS
Lab note: anything with Inhibition ratio for the maximum tail current (IKr) at or over 7% counts as Yes; the rest go in No.

compound="CCC(C)C(=O)Nc1cn2nc(-c3cccc(OC)c3)ccc2n1 (stereo not drawn)" label=Yes

Task: Does the reported Inhibition ratio for the maximum tail current (IKr) for CNC(=O)Nc1cn2nc(-c3cccc(C(=O)N4CCCC4)c3)ccc2n1 fall at or above the 7% mark?
Output: Yes

Task: Hi team, for COc1cccc(-c2ccc3nc(NC(=O)NCC(=O)OC(C)(C)C)cn3n2)c1 , is the recorded Inhibition ratio for the maximum tail current (IKr) at or above 7%?
Output: No

Task: Is Inhibition ratio for the maximum tail current (IKr) for CNC(=O)Nc1cn2nc(-c3cccc(N(C)C)c3)ccc2n1 at or above 7%?
Output: Yes

Task: API: above_or_equal(metric=Inhibition ratio for the maximum tail current (IKr), cutoff=7%) for item CNC(=O)Nc1cn2nc(C(=O)c3ccccc3)ccc2n1
Output: No

Task: Reported Inhibition ratio for the maximum tail current (IKr) reaches at least 7% for CCOC(=O)c1nc[nH]c1C(=O)Nc1cn2nc(-c3cccc(OC)c3)ccc2n1 ?
Output: No
